# Tested on: murine splenocyte
# PROCEDURE_TEXT: murine splenocyte assay for immunosuppressive activity
# Assay type: cell-based
# PROTOCOL_CONDITIONS: mouse splenocyte assay, methods of Example 2.5; read-out: Splenocyte IC50
REPORTED_PROPERTY: pIC50
The scale used: pIC50 is minus the common logarithm of the concentration in molar units.

Example molecules with recorded pIC50:
- MOLECULE: "COC1CC(CC(C)C2CC(=O)C(C)C=C(C)C(O)C(OC)C(=O)C(C)CC(C)C=CC=CC=C(C)C(N(C)C(=O)OCC(C)C)CC3CCC(C)C(O)(O3)C(=O)C(=O)N3CCCCC3C(=O)O2)CCC1O (single isomer, unassigned) [28-epi-7R-N-Me-isobutylcarbamate]"
  TESTED_SYSTEM: "murine splenocyte"
  RESULT: 6.23
- MOLECULE: "CCOC(=O)N(C)C1CC2CCC(C)C(O)(O2)C(=O)C(=O)N2CCCCC2C(=O)OC(C(C)CC2CCC(O)C(OC)C2)CC(=O)C(C)C=C(C)C(O)C(OC)C(=O)C(C)CC(C)C=CC=CC=C1C (single isomer, unassigned) [28-epi-7S-N-methyl-ethylcarbamate]"
  TESTED_SYSTEM: "murine splenocyte"
  RESULT: 5.64

Next molecule, pIC50 to be filled in.
Summary for this molecule, CO[C@@H]1C[C@H](C[C@@H](C)[C@@H]2CC(=O)[C@H](C)/C=C(\C)[C@H](O)[C@@H](OC)C(=O)[C@H](C)C[C@H](C)/C=C/C=C/C=C(\C)[C@@H](N(C)C(=O)OCc3ccccc3)C[C@@H]3CC[C@@H](C)[C@@](O)(O3)C(=O)C(=O)N3CCCC[C@H]3C(=O)O2)CC[C@H]1O [28-epi-7S-N-Me-benzylcarbamate] : pIC50 is 6.80

----------
# TESTED_SYSTEM: transcriptional switch components containing FKBP and 2098L mutant FRB domains (Homo sapiens, UniProt P42345+P62942)
# Construct: transcriptional switchcomponents containing FKBP and 2098L mutant FRB domains, respectively; fused on or other part: The two switch components are separate chimeric proteins; Neither is given for this cell line
# Sequence (P62942 2-108 limits assumed, stated change not applied, other chains not shown): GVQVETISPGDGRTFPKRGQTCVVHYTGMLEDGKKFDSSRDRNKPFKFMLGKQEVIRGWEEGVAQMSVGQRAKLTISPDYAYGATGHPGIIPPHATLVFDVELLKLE
# PROCEDURE_TEXT: transcription assay in engineered HD1080 cells expressing SEAP (txn 2098L)
# Format: cell-based
# PROTOCOL_CONDITIONS: read-out: TXN 2098L EC50; cellular transcription assay, methods of Example 2.5
REPORTED_PROPERTY: EC50 (nM)
I only need the number, in nM, no unit after it.

Data point: CO[C@@H]1C[C@H](C[C@@H](C)[C@@H]2CC(=O)[C@H](C)/C=C(\C)[C@H](O)[C@@H](OC)C(=O)[C@H](C)C[C@H](C)/C=C/C=C/C=C(\C)[C@H](Oc3ccccc3C)C[C@@H]3CC[C@@H](C)[C@@](O)(O3)C(=O)C(=O)N3CCCC[C@H]3C(=O)O2)CC[C@H]1O [28-epi-7R-2′-methylphenyloxy] ; EC50 = 8

The reported EC50 of the molecule CCOC(=O)N[C@H]1C[C@@H]2CC[C@@H](C)[C@@](O)(O2)C(=O)C(=O)N2CCCC[C@H]2C(=O)O[C@H]([C@H](C)C[C@@H]2CC[C@@H](O)[C@H](OC)C2)CC(=O)[C@H](C)/C=C(\C)[C@H](O)[C@@H](OC)C(=O)[C@H](C)C[C@H](C)/C=C/C=C/C=C/1C [28-epi-7S-ethylcarbamate] was 10

Query CCOC(=O)N[C@@H]1C[C@@H]2CC[C@@H](C)[C@@](O)(O2)C(=O)C(=O)N2CCCC[C@H]2C(=O)O[C@H]([C@H](C)C[C@@H]2CC[C@@H](O)[C@H](OC)C2)CC(=O)[C@H](C)/C=C(\C)[C@H](O)[C@@H](OC)C(=O)[C@H](C)C[C@H](C)/C=C/C=C/C=C/1C [28-epi-7R-ethylcarbamate] yields EC50 of 9
